# SYSTEM: Orai1/STIM1 (Homo sapiens, UniProt Q96D31)
# Construct: c-myc (C); expressed in transfected cells; host or cells: HEK-293 cells stably overexpressing human STIM1, stably transfected with pcDNA3.1-Orai1-cmyc
# Sequence (Q96D31 whole entry): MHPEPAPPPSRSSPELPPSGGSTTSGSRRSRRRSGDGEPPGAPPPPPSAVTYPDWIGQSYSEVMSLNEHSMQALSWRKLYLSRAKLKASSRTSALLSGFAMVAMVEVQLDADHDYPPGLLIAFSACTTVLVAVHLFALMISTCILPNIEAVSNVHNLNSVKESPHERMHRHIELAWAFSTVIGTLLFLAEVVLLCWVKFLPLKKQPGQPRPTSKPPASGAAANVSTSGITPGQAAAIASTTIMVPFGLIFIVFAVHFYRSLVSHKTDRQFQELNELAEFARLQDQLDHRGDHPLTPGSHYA
# ASSAY PROCEDURE: Fluorescence-based assay of store-operated calcium entry in Orai1/STIM1 stable cells
# Assay type: cell-based
# ASSAY CONTEXT: HEK-293 cells stably expressing human STIM1 and Orai1; Peak-Basal fluo-4 signal; Table iv; read-out: Orai1/STIM1 (IC50, μmol)
pIC50: −log10 of the molar value.
RESULT TYPE: pIC50

| CHEMICAL STRUCTURE | SYSTEM | RESULT TYPE | OBSERVED RESULT |
| --- | --- | --- | --- |
| Cc1cccc(F)c1C(=O)Nc1ccc(-c2cc(-c3ccccc3F)nn2C)s1 | Orai1/STIM1 (Homo sapiens, UniProt Q96D31) | pIC50 | 5.92 to 6.22 |
